Assay: yeast display, Sf9 membrane polyspecificity reagent, FACS + sequencing; frameworks hold sequencing errors
QUANTITY: polyreactivity (PSR sort gate)

INSERT INTO assay_data (residues, readout_value) VALUES
  ('QVQLVESGGGLVQAGGSLRVSCAASGSTFWSYAMGGYRQAPGKARELVAGITQSGGSTYYADSVKGRFTISRDTAKHTLYLQMNSLQPEDTAVYDCAKDGRVSGDFDYWGQGTQGTVSS', 'low polyreactivity'),
  ('QVQLVESGGGLVQAGGSLRLSCAASGSIFVPYAMGWYRQAPGKERELVAAINHGGGRTYADSVKGRFTISRDNAKNTVYLQMNSLKPEDTAVYYCAADGAHKFGYYRYYYWGQGTQVTVSS', 'low polyreactivity'),
  ('QVQLVESGGGLVQAGGSLRLSCAASGRTFPRYVMGWYRQAPGKERELVAAITSSGGSTYYADSVKGRFTISRDKAMNTVYLQMNSLKPEDTAVYYCAAFARPYSGQYAYRLDYWGQGTQVTVSS', 'high polyreactivity'),
  ('QVQLVESGGGLVQAGGSLRLSCAASGSIFDQYTMGWSRQAPGKERELVAAIRFSGGSTSYADSVKGRFTISRDNAKNTVYLQMNSLIPEDTAVYYCNVDAITWWDWEDFDYWGQGTQVTVSS', 'low polyreactivity'),
  ('QVQLVESGGGLVQAGGSLRLSCAASGRTFYYNAMGWYRQAPGKERELVAAISWSGGRTYYADSVKGRFTISRDNAKNTVYLQMNSLKPEDTAVYYCAATGFYSSHYHLDYWGQGTQVTVSS', 'high polyreactivity'),
  ('QVQLVESGGGLVQAGGSLRLSCAASGFTFTIYAMGSNRPAPGKERELVATISGRAGRTYYADSVKGRFTISRDNAKNTVYLQMNSLKPEDPAVYYCTAGQRRYPGLSYYWGQGTQVTVSS', 'high polyreactivity');
